Value source: ChEMBL document CHEMBL1149103

- Species on record: Mus musculus
- METHOD_DESCRIPTION: Anticonvulsant activity expressed as log(1/EDMES(2.5)) in MES assay on mice that responded a score of 2.5
- Assay type: functional
PROPERTY_MEASURED: Log 1/EDMES(2.5)
Answer with a bare number; do not write a unit.

[[record]]
mol = "O=C1NC(=O)/C(=C/c2ccccn2)N1"
property_measured = "Log 1/EDMES(2.5)"
result = -2.15

[[record]]
mol = "N#Cc1ccc(/C=C2\\NC(=O)NC2=O)cc1"
property_measured = "Log 1/EDMES(2.5)"
result = -2.3

[[record]]
mol = "CCCOc1ccc(/C=C2\\NC(=O)NC2=O)cc1"
property_measured = "Log 1/EDMES(2.5)"
result = -1.89

[[record]]
mol = "O=C1NC(=O)/C(=C/c2ccccc2O)N1"
property_measured = "Log 1/EDMES(2.5)"
result = -2.3

[[record]]
mol = "O=C1NC(=O)/C(=C/c2cccs2)N1"
property_measured = "Log 1/EDMES(2.5)"
result = -2.3


(Q) Query: Log 1/EDMES(2.5); subject: O=C1NC(=O)/C(=C/c2ccc(-c3ccccc3)cc2)N1
(A) -2.3

(Q) Next record, please: O=C1NC(=O)/C(=C/c2ccco2)N1
(A) -2.22

(Q) Same question for COc1ccccc1/C=C1\NC(=O)NC1=O please.
(A) -1.92

(Q) Input O=C1NC(=O)/C(=C/c2cccc(O)c2)N1
(A) -2.3

(Q) Also Cc1ccccc1/C=C1\NC(=O)NC1=O ?
(A) -1.77

(Q) Now give it for O=C1NC(=O)/C(=C/c2ccccc2)N1 too.
(A) -2.1

(Q) Also need O=C1NC(=O)/C(=C/c2ccc3[nH]c4ccccc4c3c2)N1 , thanks.
(A) -2.3

(Q) Follow-up entry: O=C1NC(=O)/C(=C/c2cccc3ccccc23)N1
(A) -2.3

(Q) Another compound to look at: CC(C)(C)c1ccc(/C=C2\NC(=O)NC2=O)cc1
(A) -2.3

(Q) Cc1ccc(/C=C2\NC(=O)NC2=O)c(C)c1 ?
(A) -1.59

(Q) And then CN(C)c1ccc(/C=C2\NC(=O)NC2=O)cc1 , what is it?
(A) -2.3

(Q) Now the compound CCN(CC)c1ccc(/C=C2\NC(=O)NC2=O)cc1
(A) -2.3

----------
- Organism: Mus musculus
- METHOD_DESCRIPTION: Anticonvulsant activity expressed as log(1/EDMES(2.5)) in MES assay on mice that responded a score of 2.5
- Assay type: functional
Please mark Condition met if the recorded Log 1/EDMES(2.5) is equal to or greater than -2, and Condition not met if it falls below.

Check out these entries, answers already filled in.
[[record]]
mol = "O=C1NC(=O)/C(=C/c2c[nH]c3ccccc23)N1"
class_assignment = "Condition not met"

[[record]]
mol = "O=C1NC(=O)/C(=C/c2ccc(Br)cc2)N1"
class_assignment = "Condition not met"

[[record]]
mol = "COc1ccc(/C=C2\\NC(=O)NC2=O)cc1"
class_assignment = "Condition not met"

[[record]]
mol = "O=C1NC(=O)/C(=C/c2cccc([N+](=O)[O-])c2)N1"
class_assignment = "Condition not met"

[[record]]
mol = "Cc1cc(C)c(/C=C2/NC(=O)NC2=O)c(C)c1"
class_assignment = "Condition met"

[[record]]
mol = "CCc1ccc(/C=C2\\NC(=O)NC2=O)cc1"
class_assignment = "Condition met"

[[record]]
mol = "COc1cccc(/C=C2\\NC(=O)NC2=O)c1"
class_assignment = "Condition not met"

[[record]]
mol = "CCOc1ccccc1/C=C1\\NC(=O)NC1=O"
class_assignment = "Condition not met"


For the next question, use this compound.
(Q) Given O=C1NC(=O)/C(=C/c2cccc(Oc3ccccc3)c2)N1 , state whether its Log 1/EDMES(2.5) is at least -2.
(A) Condition not met
